Reported values of fluorescence slope for individual entries
Target: Muscarinic acetylcholine receptor M4 (Homo sapiens)
Assay: M4-linked GIRK flux change, two-sided – cell-based, HEK293 M4/GIRK, thallium flux, BTC-AM, M4 allosteric agonist project, primary screen (AID 625);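 further: thallium influx through GIRK channels coupled to M4 in HEK293 cells with BTC-AM dye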
Conditions: at 10 µM, actives lie on both sides
MEASURED_QUANTITY: fluorescence slope

STRUCTURE_SMILES	MEASURED_QUANTITY	OBS_VALUE
Cc1cc(C)n(C(=O)CNC(=O)c2cccs2)n1	fluorescence slope	0.00505
CCOC(=O)c1[nH]cc(-c2ccccc2)c1N1CCOCC1	fluorescence slope	0.00498
O=C(Nc1ccc(Cl)cc1C(=O)Nc1ccncc1)c1ccco1	fluorescence slope	0.00491

This collection of values is drawn from PubChem BioAssay.
